Biological target: HBO-KAT7 (Homo sapiens, UniProt O95251)
Construct: encoding amino acid residues 325 to 611 (Uniprot 095251-1) of human KAT7; made in house; host or cells: E. coli BL21 DE3 RIL
Sequence (O95251 with tags, fused parts or gaps): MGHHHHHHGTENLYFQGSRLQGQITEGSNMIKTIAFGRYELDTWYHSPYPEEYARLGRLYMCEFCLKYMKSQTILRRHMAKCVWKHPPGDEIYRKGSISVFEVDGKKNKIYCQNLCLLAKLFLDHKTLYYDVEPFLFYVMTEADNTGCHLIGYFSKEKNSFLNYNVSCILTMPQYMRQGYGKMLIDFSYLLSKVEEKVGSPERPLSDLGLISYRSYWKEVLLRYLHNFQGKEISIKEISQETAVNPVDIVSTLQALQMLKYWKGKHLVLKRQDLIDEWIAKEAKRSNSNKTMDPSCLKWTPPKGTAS
Assay: Revised Acetyltransferase Biochemical Assay, KAT7
Settings: Table 9 (HBO-KAT7), 1 μM Acetyl coenzyme A
pIC50: −log10 of the molar value.
Respond with Met for pIC50 values of 6 and above, Not met for values below.

These recorded examples may help you get a feel for the data.
# compound, target.system, category
records = [
    ("COC(=O)NC(CNC(=O)C1=Nc2ccccc2S(=O)(=O)N1)C1CCCCC1 (centres unmarked)", "HBO-KAT7 (Homo sapiens, UniProt O95251)", "Not met"),
    ("O=C(NCCC1CCCCC1)C1=Nc2ccc(Cl)cc2S(=O)(=O)N1", "HBO-KAT7 (Homo sapiens, UniProt O95251)", "Not met"),
    ("O=C(NCC(c1ccccc1)c1nccs1)C1=Nc2ccc(I)cc2S(=O)(=O)N1 (centres unmarked)", "HBO-KAT7 (Homo sapiens, UniProt O95251)", "Met"),
    ("N#Cc1ccccc1C(CNC(=O)C1=Nc2ccccc2S(=O)(=O)N1)c1ncco1 (centres unmarked)", "HBO-KAT7 (Homo sapiens, UniProt O95251)", "Not met"),
]

Prompt line: Could you tell me if the measured pIC50 of O=C(NCC(c1ccccc1)c1ccccc1)C1=Nc2ccccc2S(=O)(=O)N1 reaches 6 or more?
Response line: Met

Prompt line: Could you tell me if the measured pIC50 of COc1cccc(C(CNC(=O)C2=Nc3ccc(I)cc3S(=O)(=O)N2)c2ncco2)c1 (centres unmarked) reaches 6 or more?
Response line: Met

Prompt line: Could you tell me if the measured pIC50 of O=C(NCC(c1ccccc1)c1ncco1)C1=Nc2ccc(Br)cc2S(=O)(=O)N1 (centres unmarked) [Example 1] reaches 6 or more?
Response line: Met
